Target: ETS1 (UniProt P14921)
Sequence: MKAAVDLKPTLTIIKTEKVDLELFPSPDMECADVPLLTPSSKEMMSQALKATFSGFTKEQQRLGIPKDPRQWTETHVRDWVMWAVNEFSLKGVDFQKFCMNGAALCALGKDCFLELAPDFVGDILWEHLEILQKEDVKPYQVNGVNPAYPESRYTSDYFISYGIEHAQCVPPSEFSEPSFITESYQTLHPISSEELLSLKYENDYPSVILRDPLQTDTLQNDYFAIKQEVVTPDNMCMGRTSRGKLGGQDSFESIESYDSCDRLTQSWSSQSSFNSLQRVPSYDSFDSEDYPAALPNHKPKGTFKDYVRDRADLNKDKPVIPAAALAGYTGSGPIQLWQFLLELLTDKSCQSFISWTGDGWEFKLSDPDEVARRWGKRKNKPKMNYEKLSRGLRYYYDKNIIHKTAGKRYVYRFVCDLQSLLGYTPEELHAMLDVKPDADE
Test: ETS1 binding intensity (PBM fluorescence), ETS1 alone (arbitrary fluorescence units); higher = stronger binding
Conditions: ETS1 concentration 1 nM; RUNX1 concentration 0 nM
Over roughly 4,100 sequences, “arbitrary fluorescence units” has its median near 780; the highest 2% begin near 22,000. The sample holds the highest values, similar sequences and a random draw of the others, so the mix is not that of the screen.
readout-name: ETS1 binding intensity
Reply with just the number.

Looking for the measured ETS1 binding intensity of ACCAAGTTTCGGGCAGGATCTTCCTGTAGTTTGCCT , can you help?
566

Looking for the measured ETS1 binding intensity of CAGCATGAGGGTGCACACACCGCTTCCTTAGAGGTT , can you help?
757

Looking for the measured ETS1 binding intensity of TCAAGAAAACAGGAAACTCTCAAATCCAAGTTCTGA , can you help?
3280

Looking for the measured ETS1 binding intensity of GGTCCAGGAAGACGTCAAGGGCTTGGATTTGTAAAC , can you help?
437

Looking for the measured ETS1 binding intensity of GTCACTGTCGTATTTACTTTAGCTTCCTGTTCATCC , can you help?
1880

Looking for the measured ETS1 binding intensity of TGGGGCCTTGTTATCACAGCACTTCCTGTTTGCTTT , can you help?
7990

Looking for the measured ETS1 binding intensity of CTTTTTGGTCTGCCAGGCACGGATTTCCGCCCACTC , can you help?
1270

Looking for the measured ETS1 binding intensity of CTCGTGTTTTGTAGCTGTGTTCTGTCCGGTCAGTTG , can you help?
502

Looking for the measured ETS1 binding intensity of AACCTCCGACTTCCGGCCGCGCAGCGGAGGGCTGAG , can you help?
32100

Looking for the measured ETS1 binding intensity of AGCTTCCTGTTTGGCCTTGCTGATGTCACCCCATTA , can you help?
27600

Looking for the measured ETS1 binding intensity of GGGGACCGGAAAGGGAGGGGTGGGCCGTAGGCGCCG , can you help?
4430

Looking for the measured ETS1 binding intensity of GCTTGTCTTCCGGTTTCGTCGCCGCCGTAGGCGCAC , can you help?
16700
